Substrate: O=CC(O)COP(=O)(O)O
protocol_description: coupled alpha-glycerophosphate dehydrogenase assay, A340
Type: biochemical, Synechocystis sp. PCC 6803
experimental_conditions: 0.1 M TEA pH 7.4, 10 mM EDTA, 0.2 mM NADH, G3P 0-5 mM, G3P to DHAP
Listed below: kcat values for each entry.
Provide only the numeric value, understood in s⁻¹.

The examples below pair each entry with its known result.
protein	observation_type	unit_abbrev	experimental_value
SyTPI (Synechocystis sp. PCC 6803 substr. Kazusa) (protein, full length, codon-optimised, E. coli BL21(DE3) delta-tpi; His tag cut by PreScission, extra Gly-Pro-His before Met1; homodimer 54 kDa) MRKIIIAGNWKMHKTQAEAQAFLQGFKPLIEDAAESREVVLCVPFTDLSGMSQQLHGGRVRLGAQNVHWEASGAYTGEISAAMLTEIGIHYVVIGHSERRQYFGETDETANLRVLAAQKAGLIPILCVGESKAQRDAGETEQVIVDQVKKGLVNVDQSNLVIAYEPIWAIGTGDTCAATEANRVIGLIREQLTNSQVTIQYGGSVNANNVDEIMAQPEIDGALVGGASLEPQSFARIVNFQP	kcat	s⁻¹	1850
SyTPI (Synechocystis sp. PCC 6803 substr. Kazusa; C127A/C176S/C42A) (protein, full length, codon-optimised, E. coli BL21(DE3) delta-tpi; His tag cut by PreScission, extra Gly-Pro-His before Met1; homodimer 54 kDa) MRKIIIAGNWKMHKTQAEAQAFLQGFKPLIEDAAESREVVLAVPFTDLSGMSQQLHGGRVRLGAQNVHWEASGAYTGEISAAMLTEIGIHYVVIGHSERRQYFGETDETANLRVLAAQKAGLIPILAVGESKAQRDAGETEQVIVDQVKKGLVNVDQSNLVIAYEPIWAIGTGDTSAATEANRVIGLIREQLTNSQVTIQYGGSVNANNVDEIMAQPEIDGALVGGASLEPQSFARIVNFQP	kcat	s⁻¹	21.3

Could you now consider this next protein?
Data request, read-out kcat, for SyTPI (Synechocystis sp. PCC 6803 substr. Kazusa; C127A/C42A) (protein, full length, codon-optimised, E. coli BL21(DE3) delta-tpi; His tag cut by PreScission, extra Gly-Pro-His before Met1; homodimer 54 kDa) MRKIIIAGNWKMHKTQAEAQAFLQGFKPLIEDAAESREVVLAVPFTDLSGMSQQLHGGRVRLGAQNVHWEASGAYTGEISAAMLTEIGIHYVVIGHSERRQYFGETDETANLRVLAAQKAGLIPILAVGESKAQRDAGETEQVIVDQVKKGLVNVDQSNLVIAYEPIWAIGTGDTCAATEANRVIGLIREQLTNSQVTIQYGGSVNANNVDEIMAQPEIDGALVGGASLEPQSFARIVNFQP
1630
